procedure-summary: AUC(0 to 7 hrs) in Sprague-Dawley rat plasma at 10 mg/kg, sc by LC-MS/MS analysis
Assay type: ADME, organism-based
Set-up: time < 7 hr, dose 10 mg/kg, route subcutaneous

{"compound": "CN(C)CCCC1(c2ccc(F)cc2)OCc2cc(C#N)ccc21 (racemic)", "AUC(0-t) at 7 h / ng·h/mL": 930}

* * *

procedure-summary: AUC(0 to infinity) in Sprague-Dawley rat plasma at 3.2 mg/kg, sc by LC-MS/MS analysis
Assay type: ADME, organism-based
Design: time infinity, dose 3.2 mg/kg, route subcutaneous
readout-type: AUC(0-inf) (ng·h/mL)

{"smiles-input": "CNCc1cc(F)c(Cl)cc1Oc1cccc(OC)c1C", "assay-result": 479}

* * *

procedure-summary: Ratio of drug level in brain to plasma in Sprague-Dawley rat at 1 mg/kg, sc by LC-MS/MS analysis
Type: ADME, organism-based
Parameters: dose 1 mg/kg, route subcutaneous
measurement-context: read-out: BPR
Reported Kp values are given for each entry in this list.

{"smiles-input": "Cc1nc2n(c(=O)c1CCN1CCC(c3noc4cc(F)ccc34)CC1)CCCC2", "Kp": 0.26}
{"smiles-input": "CC(C)S(=O)(=O)N[C@H]1CCOC[C@@H]1c1ccc(-c2ccc(C#N)s2)cc1", "Kp": 1.07}

* * *

procedure-summary: Ratio of unbound drug level in brain to plasma in Sprague-Dawley rat at 3 mg/kg, sc by LC-MS/MS analysis
Type: ADME, organism-based
Parameters: dose 3 mg/kg, route subcutaneous

{"molecule": "Nc1nc(O)c2ncn(COC(CO)CO)c2n1", "Kp uu": 0.09}
{"molecule": "NC(=O)N1c2ccccc2C=Cc2ccccc21 [CARBAMAZEPINE]", "Kp uu": 0.45}
{"molecule": "CCN(CC)CCNC(=O)c1cc(Cl)c(N)cc1OC [METOCLOPRAMIDE]", "Kp uu": 0.89}

* * *

Reported Kp values are given for each entry in this list.
procedure-summary: Ratio of drug level in brain to plasma in Sprague-Dawley rat at 3 mg/kg, sc by LC-MS/MS analysis
Format: ADME, organism-based
Parameters: dose 3 mg/kg, route subcutaneous
measurement-context: read-out: BPR
readout-type: Kp

{"compound": "Nc1nc(O)c2ncn(COC(CO)CO)c2n1 [GANCICLOVIR]", "assay-result": 0.1}
{"compound": "CCN(CC)CCNC(=O)c1cc(Cl)c(N)cc1OC [METOCLOPRAMIDE]", "assay-result": 1.72}
{"compound": "NC(=O)N1c2ccccc2C=Cc2ccccc21 [CARBAMAZEPINE]", "assay-result": 1.12}

* * *

procedure-summary: AUC(0 to infinity) in Sprague-Dawley rat brain at 3 mg/kg, sc by LC-MS/MS analysis
Type: ADME, organism-based
Parameters: dose 3 mg/kg, route subcutaneous, time infinity

{"molecule": "NC(=O)N1c2ccccc2C=Cc2ccccc21 [CARBAMAZEPINE]", "AUC(0-inf) [ng·h/mL]": 2550}
{"molecule": "Nc1nc(O)c2ncn(COC(CO)CO)c2n1 [GANCICLOVIR]", "AUC(0-inf) [ng·h/mL]": 182}
{"molecule": "CCN(CC)CCNC(=O)c1cc(Cl)c(N)cc1OC [METOCLOPRAMIDE]", "AUC(0-inf) [ng·h/mL]": 635}
